# Test system: VERO-E6 cells
# EXPERIMENTAL_DETAILS: Steady-state intracellular uptake in VERO-E6 cells
# Format: in vitro ADME
# EXPERIMENTAL_PARAMETERS: VERO-E6, 60 min incubation, 50 μM at t = 0
Label yes when EC (extracellular concentration in the media at t = 60 min) ± sd >= 20 µM; otherwise no.

COMPOUND	ASSIGNED_LABEL
COc1ccc(S(=O)(=O)N(C)C[C@H]2O[C@@H](n3cc(C#Cc4cnc5ccccc5c4)c4c(N)ncnc43)[C@H](O)[C@@H]2O)cc1C#N [Compound 12q]	no
CCN(C[C@H]1O[C@@H](n2cc(C#Cc3ccc(C(N)=O)cc3)c3c(N)ncnc32)[C@H](O)[C@@H]1O)S(=O)(=O)c1ccc(OC)c(C#N)c1 [Compound 12o]	yes
CCN(C[C@H]1O[C@@H](n2cc(C#Cc3cnc4ccccc4c3)c3c(N)ncnc32)[C@H](O)[C@@H]1O)S(=O)(=O)c1ccc(OC)c(C#N)c1 [Compound 12e]	no
CCN(C[C@H]1O[C@@H](n2cc(C#Cc3nc4ccccc4[nH]3)c3c(N)ncnc32)[C@H](O)[C@@H]1O)S(=O)(=O)c1ccc(OC)c(C#N)c1 [Compound 12a]	yes
COc1ccc(S(=O)(=O)N(C)C[C@H]2O[C@@H](n3cc(C#Cc4ccc(C(N)=O)cc4)c4c(N)ncnc43)[C@H](O)[C@@H]2O)cc1C#N [Compound 12r]	no

Input: Confirm if EC (extracellular concentration in the media at t = 60 min) ± sd reported for the compound COc1ccc(S(=O)(=O)N(C)C[C@H]2O[C@@H](n3cc(C#Cc4cccnc4)c4c(N)ncnc43)[C@H](O)[C@@H]2O)cc1C#N [Compound 12s] is 20 µM or above.
Output: no

Input: Exam item: decide whether the reported EC (extracellular concentration in the media at t = 60 min) ± sd for CCN(C[C@H]1O[C@@H](n2cc(C#Cc3cccnc3)c3c(N)ncnc32)[C@H](O)[C@@H]1O)S(=O)(=O)c1ccc(OC)c(C#N)c1 [Compound 12l] is at least 20 µM.
Output: no

* * *

# EXPERIMENTAL_DETAILS: Microsomal stability, human
# Type: in vitro ADME
# EXPERIMENTAL_PARAMETERS: pooled liver microsomes, pH 7.4, 0.5 mg/ml human microsomes, triplicates, read-out: Microsomal stability T1/2
Listing of recorded half-life at 5 µM by entry.

Example compounds with recorded half-life at 5 µM:
COMPOUND	half-life at 5 µM
CCN(C[C@H]1O[C@@H](n2cc(C#Cc3nc4ccccc4[nH]3)c3c(N)ncnc32)[C@H](O)[C@@H]1O)S(=O)(=O)c1ccc(OC)c(C#N)c1 [Compound 12a]	17.3 min
CCN(C[C@H]1O[C@@H](n2cc(C#Cc3cnc4ccccc4c3)c3c(N)ncnc32)[C@H](O)[C@@H]1O)S(=O)(=O)c1ccc(OC)c(C#N)c1 [Compound 12e]	91.3 min
CCN(C[C@H]1O[C@@H](n2cc(C#Cc3ccc(N)nc3)c3c(N)ncnc32)[C@H](O)[C@@H]1O)S(=O)(=O)c1ccc(OC)c(C#N)c1 [Compound 12h]	38 min

Input: For COc1ccc(S(=O)(=O)N(C)C[C@H]2O[C@@H](n3cc(C#Cc4cccnc4)c4c(N)ncnc43)[C@H](O)[C@@H]2O)cc1C#N [Compound 12s] , write its half-life at 5 µM.
Output: 53.7 min

Input: State, in one line, measured half-life at 5 µM of CCN(C[C@H]1O[C@@H](n2cc(C#Cc3ccc(C(N)=O)cc3)c3c(N)ncnc32)[C@H](O)[C@@H]1O)S(=O)(=O)c1ccc(OC)c(C#N)c1 [Compound 12o]
Output: 26.2 min

Input: Give the value of half-life at 5 µM reported for the following: CCN(C[C@H]1O[C@@H](n2cc(C#Cc3cccnc3)c3c(N)ncnc32)[C@H](O)[C@@H]1O)S(=O)(=O)c1ccc(OC)c(C#N)c1 [Compound 12l]
Output: 113 min
